Every entry's value here was drawn from the Immune Epitope Database (IEDB).

- study system: HLA-A*69:01
- assay info: IEDB peptide-MHC binding, purified MHC/direct/fluorescence; filed as Kd, often an IC50 or EC50 that approximates it; bounds were set here for any values at or beyond the usual limits of such assays
- applied conditions: source organism: Marburg virus - Musoke, Kenya, 1980
This section presents sequences with their documented Kd values.

Examples with answers:
biopolymer sequence: IFDDLQGSL
attribute measured: Kd
endpoint result: ≥ 20 µM

biopolymer sequence: YLPEDSDIL
attribute measured: Kd
endpoint result: ≥ 20 µM

biopolymer sequence: YMQQVSEGL
attribute measured: Kd
endpoint result: 1.38 µM

Quote Kd with test system HLA-A*69:01 for "NRWKSWFSY"
≥ 20 µM

---

- study system: HLA-A*02:01
- assay info: IEDB peptide-MHC binding, purified MHC/competitive/fluorescence; filed as Kd, often an IC50 or EC50 that approximates it; bounds were set here for any values at or beyond the usual limits of such assays
- applied conditions: source organism: Bacillus anthracis str. A0488
attribute measured: Kd (nM)
Report only the number, with the unit nM understood.

biopolymer sequence: REFEAQNVP
study system: HLA-A*02:01
Kd / nM: 145

--- query ---
Input "SLAALFYSL" , output reported Kd.
1.8

---

- study system: HLA-A*26:03
- assay info: IEDB peptide-MHC binding, purified MHC/competitive/fluorescence; filed as Kd, often an IC50 or EC50 that approximates it; bounds were set here for any values at or beyond the usual limits of such assays
- applied conditions: source organism: Vaccinia virus Copenhagen
attribute measured: pKd
pKd is a log-scale quantity: -log10 of the concentration expressed in molar.

Input "ALYSYASAK" , output reported pKd.
6.31

---

- study system: HLA-A*02:02
- assay info: IEDB peptide-MHC binding, purified MHC/competitive/radioactivity; filed as Kd, often an IC50 or EC50 that approximates it; bounds were set here for any values at or beyond the usual limits of such assays
- applied conditions: source organism: HIV-1 M:B_ARV2/SF2
attribute measured: pKd
pKd is a log-scale quantity: -log10 of the concentration expressed in molar.

Input "LTFGWCFKLV" , output reported pKd.
6.04

---

- study system: HLA-C*03:03
- assay info: IEDB peptide-MHC binding, purified MHC/direct/fluorescence; filed as Kd, often an IC50 or EC50 that approximates it; bounds were set here for any values at or beyond the usual limits of such assays
- applied conditions: source organism: Streptococcus pneumoniae R6
pKd: −log10 of the molar value.
attribute measured: pKd

Input "LANYAFFAI" , output reported pKd.
≥ 9.00

---

This section presents sequences with their documented IC50 values.
- study system: HLA-A*02:01
- assay info: IEDB peptide-MHC binding, purified MHC/competitive/fluorescence; bounds were set here for any values at or beyond the usual limits of such assays
- applied conditions: source organism: Vaccinia virus Copenhagen

biopolymer sequence: QLAKAIITP
attribute measured: IC50
endpoint result: ≥ 96.3 µM

Input "LAKAIITPI" , output reported IC50.
13.7 µM

---

- study system: HLA-A*02:03
- assay info: IEDB peptide-MHC binding, purified MHC/competitive/radioactivity; filed as Kd, often an IC50 or EC50 that approximates it; bounds were set here for any values at or beyond the usual limits of such assays
- applied conditions: source organism: Dengue virus 3 Martinique/1243/1999
This section presents sequences with their documented pKd values.
pKd is a log-scale quantity: -log10 of the concentration expressed in molar.

Examples with answers:
biopolymer sequence: SLVSAGSGKV
pKd: 7.71
//
biopolymer sequence: LLALNDMGKV
pKd: 7.82

--- query ---
Input "KLREVYTQL" , output reported pKd.
7.41
